Measured kon accompanies every entry in the list below.
Molecular target: T1, cynomolgus monkey transferrin (cynomolgus monkey, UniProt A0A2K5UXZ0 20-695)
T1 construct: also called cynomolgus transferrin
Test: SPR, BIAcore T200, cynomolgus monkey transferrin as ligand, sdAb as analyte

Solved cases below.
Name the recorded kon for AS01299VH3a (VHH, Humanized variant of AS01299, C-terminal 6xHis tag) VHH: EVQLVESGGGLVQPGGSLRLSCAASGSIFSIATMAWYRQAPGKGLELVAGITRSGSTNYRDSVKGRFTISRDNSKNTMYLQMNSLRAEDTAVYYCTDYSSRYYHDYWGQGTLVTVSS .
4.9e+06 M⁻¹ s⁻¹

Now consider AS01299VH3a-A49 (VHH, Humanized variant of AS01299, C-terminal 6xHis tag) VHH: EVQLVESGGGLVQPGGSLRLSCAASGSIFSIATMAWYRQAPGKGLELVSGITRSGSTNYRDSVKGRFTISRDNSKNTMYLQMNSLRAEDTAVYYCTDYSSRYYHDYWGQGTLVTVSS .
2.6e+06 M⁻¹ s⁻¹

Now consider AS01274 sdAb (VHH, Llama sdAb made in E. coli with a C-terminal 6xHis tag; also called sdAb AS01274) VHH: QVQLVESGGGLVQPGGSLRLSCVASGSIASIATMAWYRQAPGQQRELVAGITRGGSTKYADSVKGRFTISRDNAKNTLYLQMNSLKPDDTAVYYCTDYSRKYYQDYWGQGTQVTVSS .
1.3e+07 M⁻¹ s⁻¹

Now consider AS01299VH3a-M78 (VHH, Humanized variant of AS01299, C-terminal 6xHis tag) VHH: EVQLVESGGGLVQPGGSLRLSCAASGSIFSIATMAWYRQAPGKGLELVAGITRSGSTNYRDSVKGRFTISRDNSKNTLYLQMNSLRAEDTAVYYCTDYSSRYYHDYWGQGTLVTVSS .
5.2e+06 M⁻¹ s⁻¹

Now consider AS01274VHa (VHH, Humanized variant of AS01274, C-terminal 6xHis tag) VHH: EVQLVESGGGLVQPGGSLRLSCAASGSIASIATMAWYRQAPGKGLELVAGITRGGSTKYADSVKGRFTISRDNSKNTLYLQMNSLRAEDTAVYYCTDYSRKYYQDYWGQGTLVTVSS .
7.3e+06 M⁻¹ s⁻¹

New cases:
Name the recorded kon for AS01274VHa-A49 (VHH, Humanized variant of AS01274, C-terminal 6xHis tag) VHH: EVQLVESGGGLVQPGGSLRLSCAASGSIASIATMAWYRQAPGKGLELVSGITRGGSTKYADSVKGRFTISRDNSKNTLYLQMNSLRAEDTAVYYCTDYSRKYYQDYWGQGTLVTVSS .
8.7e+06 M⁻¹ s⁻¹

// data source = patent US20220033481A1
